assay: Toxic effect in mice; format: toxicity, organism-based; settings: mouse, in vivo
QUANTITY_MEASURED: LD50 (µmol/kg)
// units = µmol/kg; emit number, no label

NC(=O)CBr ... 270

Okay, next one:
Input line: Reported LD50 for NC(=O)CCCc1ccc(NC(=O)CBr)cc1 : what is it?
Output line: 210

---

experiment: Toxic effect in rats was determined in vivo; type: toxicity, organism-based; conditions: rat
QUANTITY_MEASURED: LD50

Input line: Reported LD50 for CC(=O)Nc1ccc(CCCC(N)=O)cc1 : what is it?
Output line: > 480 µmol/kg

---

assay: The compound was tested for the ability to inactivate rat liver alcohol dehydrogenase in the absence of NAD+K
Entries annotated with measured Rate constant
// units = M⁻¹ s⁻¹; emit number, no label

// below: answered compounds
NC(=O)CBr ... 0.0883
O=C(O)CCCCCCCCNC(=O)CBr ... 0.2
O=C(O)CCCCCCNC(=O)CBr ... 0.183
O=C(O)CCCCCCCCCCCNC(=O)CBr ... 0.317
O=C(CBr)Nc1ccc(-c2ccc(C(=O)O)cc2)cc1 ... 0.483
O=C(O)CCCCCCCNC(=O)CBr ... 0.2
O=C(CBr)Nc1ccc(Oc2ccc(C(=O)O)cc2)cc1 ... 1.15
O=C(O)CBr ... 0.217
O=C(O)CCCCCCCCCCNC(=O)CBr ... 0.152

Okay, next one:
Input line: Reported Rate constant for NC(=O)CCCc1ccc(NC(=O)CBr)cc1 : what is it?
Output line: 0.583
